Hello, the source for this data is patent US7056679, in case you need it.

- Target Or System: T1, DGI-2 polypeptide (UniProt Q15004 1-111, limits assumed)
- T1 construct: Soluble recombinant protein coated at 500 ng/well; vector tag of pIVEX2.3-MCS not described for this construct; also called KIAA0101
- T1 sequence (looked up): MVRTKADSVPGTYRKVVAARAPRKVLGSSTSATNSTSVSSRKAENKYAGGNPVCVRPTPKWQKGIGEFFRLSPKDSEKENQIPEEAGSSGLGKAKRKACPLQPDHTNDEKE
- Assay: phage ELISA
I'd be grateful if you could share measured DGI-2 (OD) for these entries.
Answers are plain numbers, in OD.

[[record]]
binder = "WWREWVDGSLRGGGGTVLKDAAAGAPVPYPDPLEPRP [DGI-2-20R-3-A122]"
measured_metric = "DGI-2 (OD)"
units = "OD"
numeric_readout = 9.6

[[record]]
binder = "VSGVPDGSMRAAQLASGYWCAAAGAPVPYPDPLEPRP [DGI-2-20F-PP-G2]"
measured_metric = "DGI-2 (OD)"
units = "OD"
numeric_readout = 2.4

[[record]]
binder = "VSFAHDWGRWWYQWEVGAAAGAPVPYPDPLEPRP [DGI-2-20R-4-G22]"
measured_metric = "DGI-2 (OD)"
units = "OD"
numeric_readout = 7.9

[[record]]
binder = "GGSLPVKSGQLVTCCTSKGGAAAGAPVPYPDPLEPRP [DGI-2-20F-PP-F5]"
measured_metric = "DGI-2 (OD)"
units = "OD"
numeric_readout = 2.3

[[record]]
binder = "SVTISTSCRTGCPAGYLRRDAAAGAPVPYPDPLEPRP [DGI-2-20F-PP-D2]"
measured_metric = "DGI-2 (OD)"
units = "OD"
numeric_readout = 2.2


Lab note: each binder below needs its DGI-2 (OD) filled in.
1. RPVVCLAGLTLAQFGWVFPGWRGWSAAAGAPVPYPDPLEPRP [DGI-2-20C-3-C1039]
2. GASRVVDVGWRFWGKLWQRSAAAGAPVPYPDPLEPRP [DGI-2-20F-PP-G5]
3. VHSQGRMWAIPGLRGGTGASAAAGAPVPYPDPLEPRP [DGI-2-20R-3-D7]
4. TIDVARRFGYGWWDLWLDGDAAAGAPVPYPDPLEPRP [DGI-2-20R-3-C3]
5. VGQSSGDARPLANLFVFPFVAAAGAPVPYPDPLEPRP [DGI-2-20F-PP-F12]
6. WVVALRRIRLGLRRGVECLLAAAGAPVPYPDPLEPRP [DGI-2-20F-PP-D5]

Given back:
1: 4.7; 2: 2.4; 3: 5.2; 4: 7.9; 5: 2.1; 6: 2.7
